The reported measurements were obtained from paper PMC5540273.

Tested on: PRKCQ;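 further: KINOMEscan kinase panel screen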
Conditions: concentration: 1 μM, replicates: in singlicate; n = 1
Assign labels as follows, please: class 1 for %Inh below 8%; class 0 for %Inh equal to or exceeding 8%.

Record excerpt, results attached:
>>> df
                               query_smiles    class
0  Cl.c1ccc(Cn2cnc3cc(Nc4ncnc5ccccc45)ccc32)cc1  class 1
1  CCC(=O)c1c(-c2ccccc2)c2cc(Cl)ccc2c(=O)n1Cc1cc(S(C)(=O)=O)n(CC(N)=O)n1  class 1
2  C[C@@H]1CC[C@H](C(=O)NC2CCCCC2)CN1c1cc(-c2ccc3c(N)n[nH]c3c2)nc(N)n1  class 0
3  COC(=O)c1c(-c2ccccc2)c2cc(Br)ccc2c(=O)n1Cc1ccc(NC(=O)CCC(=O)O)cc1  class 0
4  O=C(Nc1n[nH]c2nc(-c3ccccc3)c(Cl)cc12)C1CC1  class 1
5  CCC(=O)c1c(-c2ccccc2)c2cc(Cl)ccc2c(=O)n1Cc1cc(C(=O)NC2CC2)n(C)n1  class 0
6             Nc1ncnc2c1ncn2-c1cccc2ccccc12  class 1
7      O=C1NC(=O)C(c2ccccc2)=C1Nc1cccc(O)c1  class 1

Data request: is_below(%Inh, 8%) for Nc1n[nH]c2ncc(-c3ccccc3)cc12 ?
Data returned: class 1

Data request: Please state whether %Inh is below 8% for Cc1ccc(-c2ccc3c(ccc4sc5c(c43)NC[C@@H](C)N=C5N(C)C)n2)cn1
Data returned: class 1
